# Tested on: c-Abl (mouse)
# assay_summary: phosphorylation enrichment, bacterial display (enrichment ratio); higher = better substrate or ligand; peptides without Tyr show the background;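 further: 11-residue human phosphosite peptides and single-mutation variants displayed on the E. coli surface, counted by deep sequencing, each peptide's frequency after selection divided by its frequency in the unselected input library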;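 further: frequency after pTyr selection over input frequency; kinase dosed for 20-30% of maximal phosphorylation in three min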
Give met when the value for phosphorylation enrichment is at least 0.6. Give not met when it is less.

Below, 3 sequences whose answers are already recorded.
sequence_text	discrete_label
GPSTPYTKSKR [SMARCC2_Y324]	met
QNVADYMRCLM [RPL5_Y207_Y210C]	met
MPAVTYTPAMR [MEGF10_Y895]	not met

Determine whether measured phosphorylation enrichment meets or exceeds 0.6 for RAIELYNDKEK [OTULIN_Y244]
met

Determine whether measured phosphorylation enrichment meets or exceeds 0.6 for LLREWYLQDPF [SIX3_Y225_YF]
met

Determine whether measured phosphorylation enrichment meets or exceeds 0.6 for EHTTLYSDNST [KANSL1_Y223_N225D]
not met

Determine whether measured phosphorylation enrichment meets or exceeds 0.6 for KQRSDYARELE [MYH3_Y1140]
met

Determine whether measured phosphorylation enrichment meets or exceeds 0.6 for HPFNSYTFPRL [PAK5_Y316_S312P_YF]
met

###

# measured_on: EPHB2 (UniProt P29323)
# Sequence (P29323 whole entry, looked up): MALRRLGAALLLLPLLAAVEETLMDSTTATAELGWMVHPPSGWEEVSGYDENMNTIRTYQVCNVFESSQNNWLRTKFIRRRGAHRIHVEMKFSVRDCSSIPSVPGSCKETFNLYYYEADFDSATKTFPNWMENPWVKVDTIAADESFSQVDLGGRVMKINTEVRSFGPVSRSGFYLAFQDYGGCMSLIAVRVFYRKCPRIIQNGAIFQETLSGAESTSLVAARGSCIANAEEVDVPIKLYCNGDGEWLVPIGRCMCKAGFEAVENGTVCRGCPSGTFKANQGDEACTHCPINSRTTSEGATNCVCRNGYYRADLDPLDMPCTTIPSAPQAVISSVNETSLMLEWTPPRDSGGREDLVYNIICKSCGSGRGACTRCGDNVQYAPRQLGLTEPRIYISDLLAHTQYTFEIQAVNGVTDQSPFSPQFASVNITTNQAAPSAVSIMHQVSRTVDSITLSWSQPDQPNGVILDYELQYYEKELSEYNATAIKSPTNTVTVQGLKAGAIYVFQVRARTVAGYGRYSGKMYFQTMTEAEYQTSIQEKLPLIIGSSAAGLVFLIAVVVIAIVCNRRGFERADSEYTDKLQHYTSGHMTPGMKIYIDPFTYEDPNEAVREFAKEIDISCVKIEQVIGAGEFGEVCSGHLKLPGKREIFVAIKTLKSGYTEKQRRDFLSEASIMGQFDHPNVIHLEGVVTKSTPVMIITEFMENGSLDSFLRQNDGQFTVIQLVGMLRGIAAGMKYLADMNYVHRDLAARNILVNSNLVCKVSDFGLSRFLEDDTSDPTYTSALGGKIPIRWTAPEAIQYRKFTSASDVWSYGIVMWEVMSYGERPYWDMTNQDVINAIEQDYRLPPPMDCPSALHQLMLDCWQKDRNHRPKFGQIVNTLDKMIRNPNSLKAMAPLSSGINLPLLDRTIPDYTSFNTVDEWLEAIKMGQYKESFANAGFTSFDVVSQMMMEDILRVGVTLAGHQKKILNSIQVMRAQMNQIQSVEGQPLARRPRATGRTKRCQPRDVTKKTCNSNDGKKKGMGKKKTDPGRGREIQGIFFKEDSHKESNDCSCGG
# assay_summary: phosphorylation enrichment, bacterial display (enrichment ratio); higher = better substrate or ligand; peptides without Tyr show the background
measurement_name: phosphorylation enrichment
Give only the figure.

Answered cases to consult:
sequence_text	phosphorylation enrichment
AVPSLYASGRT [ACTA1_Y145_L142P]	0.433
INITIYGKTFH [EFHC1_Y177_R182H]	0.513
LPKEQYLYTKE [AFG3L2_Y614]	0.574
SSEFHYVGGFF [CTSC_Y347_YF]	0.532
KIVATYRLCSE [DNAH3_Y1586]	0.626

So what does the record say about phosphorylation enrichment for NNRVFYGNSDC [RS1_Y177_R182C] ?
0.486

###

Recorded phosphorylation enrichment by entry
# System: c-Abl (mouse)
# assay_summary: phosphorylation enrichment, bacterial display (enrichment ratio); higher = better substrate or ligand; peptides without Tyr show the background
Give only the figure.

sequence_text	phosphorylation enrichment
DLVHPYVHKIL [SF3B1_Y570_R568H]	0.655
SFPHEYGSQEG [RBM10_Y48_R46H_YF]	0.583
AGGTRYRFVSQ [UCN3_Y95_R91G_YF]	0.576

So what does the record say about phosphorylation enrichment for ADCRFYTFPQM [GAMT_Y223_A224T_YF] ?
0.784

So what does the record say about phosphorylation enrichment for PELINYHQHNS [BTK_Y361] ?
0.561

So what does the record say about phosphorylation enrichment for SLQAHYDTPRS [DOK7_Y405_R402Q] ?
3.19

So what does the record say about phosphorylation enrichment for NSNSDYVDILP [SH2D1B_Y127_V130I] ?
1

So what does the record say about phosphorylation enrichment for VKMLEYLGKDV [CASP5_Y74] ?
0.57

So what does the record say about phosphorylation enrichment for GTPVMYTYDEY [COL10A1_Y623] ?
0.68

So what does the record say about phosphorylation enrichment for APGDAYGDAGF [SYP_Y250_YF] ?
0.565

###

# measured_on: Fes (UniProt P07332)
# Sequence (P07332 whole entry, looked up): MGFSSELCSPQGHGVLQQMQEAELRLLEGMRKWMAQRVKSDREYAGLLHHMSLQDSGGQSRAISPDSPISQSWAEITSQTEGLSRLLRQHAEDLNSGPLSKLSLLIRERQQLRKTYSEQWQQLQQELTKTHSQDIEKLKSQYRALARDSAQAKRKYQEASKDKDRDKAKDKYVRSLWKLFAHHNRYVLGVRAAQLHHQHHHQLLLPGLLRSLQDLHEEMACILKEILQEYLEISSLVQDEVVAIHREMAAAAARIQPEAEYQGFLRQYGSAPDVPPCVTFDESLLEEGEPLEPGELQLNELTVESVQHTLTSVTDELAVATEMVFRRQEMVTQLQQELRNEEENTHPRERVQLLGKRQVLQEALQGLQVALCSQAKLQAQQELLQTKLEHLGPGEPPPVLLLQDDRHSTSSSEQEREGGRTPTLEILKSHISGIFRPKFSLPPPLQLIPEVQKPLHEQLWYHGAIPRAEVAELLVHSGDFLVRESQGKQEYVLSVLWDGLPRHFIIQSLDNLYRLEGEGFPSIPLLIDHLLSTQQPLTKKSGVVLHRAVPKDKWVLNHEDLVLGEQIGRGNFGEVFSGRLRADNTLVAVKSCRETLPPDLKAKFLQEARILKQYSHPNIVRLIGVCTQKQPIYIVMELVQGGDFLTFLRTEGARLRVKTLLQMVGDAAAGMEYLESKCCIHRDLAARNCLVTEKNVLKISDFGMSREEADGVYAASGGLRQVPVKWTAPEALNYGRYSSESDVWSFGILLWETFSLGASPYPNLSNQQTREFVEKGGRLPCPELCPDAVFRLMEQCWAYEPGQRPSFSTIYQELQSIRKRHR
# assay_summary: phosphorylation enrichment, bacterial display (enrichment ratio); higher = better substrate or ligand; peptides without Tyr show the background
Recorded phosphorylation enrichment by entry
Give only the figure.

Answered cases to consult:
sequence_text	measured_on	phosphorylation enrichment
MDQAEYQAKIQ [DHX58_Y518_R523Q]	Fes (UniProt P07332)	1.05
VNKGGYFSVNL [C3orf33_Y164_S160N]	Fes (UniProt P07332)	1.05
YAFQLYDLDRD [CHP2_Y123]	Fes (UniProt P07332)	1.17
MGSFNYLGFPR [SPTLC2_Y178_A182P_YF]	Fes (UniProt P07332)	0.983
AQMAMYFWEMG [TRPM4_Y577]	Fes (UniProt P07332)	1.45

Then there is this sequence:
So what does the record say about phosphorylation enrichment for QDEPTYARSSK [PEAK1_Y616_H611Q] ?
0.869
